Tested on: T1, human CLDN6 (human, UniProt P56747 1-220)
T1 construct: Four-transmembrane protein, NP_067018; It was also expressed on CHO-K1 cells by cDNA transfection; In the immunoprecipitation it was the endogenous protein from NTERA-2 cell lysate; also called hCLDN6; claudin-6
T1 sequence: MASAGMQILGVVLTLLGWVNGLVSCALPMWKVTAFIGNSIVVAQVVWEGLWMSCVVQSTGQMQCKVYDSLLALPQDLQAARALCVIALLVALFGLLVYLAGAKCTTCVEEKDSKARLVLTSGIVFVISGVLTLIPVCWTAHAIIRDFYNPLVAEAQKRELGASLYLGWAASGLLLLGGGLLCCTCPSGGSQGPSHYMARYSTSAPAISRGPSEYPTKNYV
Method: flow cytometry (MFI) on transiently transfected 293T cells
Value kind: binding result

humanized anti-CLDN6 antibody H2L2 (antibody, human IgG1, kappa, L234A L235A, V domains shown, hH2 + hL2, with human IgG1 LALA constant region and human kappa chain; also called H2L2 antibody) VH: EVQLVQSGAEVKKPGASVKVSCKTSGYTFTEYTMHWVRQAPGKSLEWMGGVNPNSGDTSYAQKFQGRVTITADTSTSTAYMELSSLRSEDTAVYYCARPGGYDVGYYAMDYWGQGTLVTVSS VL: DIQMTQSPSSLSASVGDRVTITCRASQDINNYLNWYQQKPGKAVKLLIYFTSRLHSGVPSRFSGSGSGTHYTLTISSLQPEDFATYYCQQGYPLPWTFGQGTKVEIKR = binds
